Could you please report measured Percent Effect for the items listed next?
# assay system: AMP-activated protein kinase, AMPK (Homo sapiens) (UniProt P54646+O43741+P54619+Q9UGJ0+Q9Y478+Q13131+Q9UGI9)
# protocol: AMP-dependent Kinase enzyme assay. An in vitro enzyme assay that detects ADP turnover that is directly proportional to AMPK activity. This uses naive AMPK that is activated during the assay with MK-8722
# Format: functional
# Design: scale not given: direction of the effect not stated beside the values
# measurement parameters: 30 µM
Just the number please, in %, no unit attached.

Which Percent Effect value is on record for COc1cccc(C2CC(=O)Nc3nc(N4CCOCC4)sc32)c1OC (stereo not given) ?
16

Please give the measured Percent Effect for this compound: Cc1nc(CN2CCCC(N(C)CCc3cccs3)C2)no1 (stereo not given)
-8.86

# query: Percent Effect of entry Cc1ncsc1C(=O)NCCn1nc(C2CCNC2)c2cccnc21 (stereo not given)
5.57

Fill in: Percent Effect of COc1cccc([C@@H]2CN(C(=O)c3ccc(C)cc3O)C[C@H]2C(=O)O)c1 is ___
-1.7

Quick check: Percent Effect of CN(c1ccncn1)C1CC2(CCN(C(=O)c3cccs3)C2)C1 (stereo not given) ?
1.54

Param item = CN(C)C(=O)CC1CC2(CCNCC2)c2cc(F)ccc21 (stereo not given) ; retrieve measured Percent Effect.
8.49

Looking for the measured Percent Effect of CC(=O)N(C)c1nc(CN2CCOC(Cn3cccn3)C2)cs1 (stereo not given) , can you help?
-1.27

Would you kindly share the measured Percent Effect for CC(C)N(C)Cc1cn2c(n1)CN(C(=O)Cc1ccsc1)CC2 ?
3.83

Percent Effect for O=C(NCC1CC1)[C@H]1C[C@@H]2CCN(Cc3nccs3)C[C@@H]2O1 ?
5.76

Would you kindly share the measured Percent Effect for Cc1ccccc1CSCCn1nc2ccccn2c1=O ?
7.92

Given the entry CCN1C[C@H]2CCN(C(=O)NC3CCCC3)CC[C@H]2S1(=O)=O , report its measured Percent Effect.
2.73

What value of measured Percent Effect is listed for Cc1nc(C)c(CC(=O)Nc2nnc(C)s2)c(=O)[nH]1 ?
-1.32

Look at this compound and give its reported Percent Effect. CC(NCc1ccc(Cl)o1)c1nnc2n1CCCC2 (stereo not given)
2.81

Return reported Percent Effect; argument: Cc1nc(C)n(C2CCCN(C(=O)c3ccccc3C)C2)n1 (stereo not given)
-0.257

Report Percent Effect for Cc1nc(CN2CCCN(C(=O)c3ccccn3)CC2)oc1C please.
0.524

Entry Cn1ccc(CN2CCC(c3ccccc3)CC2)cc1=O : reported Percent Effect = ?
-2.22

Quick check: Percent Effect of CCOc1nnc(CNC2CCCN(c3ccc(C)nn3)C2)s1 (stereo not given) ?
-13.2

So what's the measured Percent Effect for this one? Cc1ccccc1-c1cncc(C2CCN(C)CC2)n1
8.25

Give its Percent Effect value. Item: CCOCCCNC(=O)c1cn(CC)nc1C
-2.97

Find the recorded Percent Effect belonging to CN(CCO)Cc1nnc(C2CCN(C3CCCCC3)CC2)n1C and report it.
0.423

Value lookup for Percent Effect; key = CC(C)n1cc(S(=O)(=O)N2CCCCC2)cn1
-5.08

May I ask what Percent Effect has been recorded for O=C(NCC(Cc1cccc(F)c1)N1CCCC1=O)c1cnccn1 (stereo not given) ?
8.47

I would be grateful if you could share the reported Percent Effect for O=C(O)C(c1ccc2c(c1)OCCO2)N1CCCCCC1 (stereo not given) .
0.637

Please look up its Percent Effect: Cc1cc(NC(=O)CN2CCn3c(nnc3C3CC3)C2)n(C)n1
11.5

For the compound COCCN1C(=O)C[C@H]2[C@H]1CCN2Cc1ccc(OC)cc1 , what Percent Effect is on record?
11
